assay: Plasma concentrations and TK parameters, 72-hour continuous intravenous infusion; format: in vivo, Sprague-Dawley rats; conditions: male, Sprague-Dawley, rat, plasma, iv, 10 mg/kg/day, male Sprague-Dawley rats; 72-hour intravenous infusion at 10 mg/kg/day; time 48 h; read-out: Plasma concentration, Mean
endpoint label: concentration at 48 h (ng/mL)
Answer format: numeric, ng/mL implied, no suffix.

So what's the measured concentration at 48 h for this one? O=C(O)c1cc(-c2ccc(C3CCNCC3)cc2)c2ccc(-c3ccc(C(F)(F)F)cc3)cc2c1 [KB-1801]
602

* * *

test: Plasma concentrations during 24-hour continuous intravenous infusion; assay type: in vivo, Sprague-Dawley rats; details: male, Sprague-Dawley, rat, plasma, iv, 100 mg/kg, male Sprague-Dawley rats; 24-hour intravenous infusion at 100 mg/kg; time 6 h; read-out: Plasma concentration, Mean
endpoint label: concentration at 6 h
Could you write the number and then its unit?

So what's the measured concentration at 6 h for this one? O=C(O)c1cc(-c2ccc(C3CCNCC3)cc2)c2ccc(-c3ccc(C(F)(F)F)cc3)cc2c1 [KB-1801]
6660 ng/mL

* * *

test: Plasma concentrations and TK parameters, 72-hour continuous intravenous infusion; assay type: in vivo, Sprague-Dawley rats; conditions: female, Sprague-Dawley, rat, plasma, iv, 100 mg/kg/day, female Sprague-Dawley rats; 72-hour intravenous infusion at 100 mg/kg/day; time 24 h; read-out: Plasma concentration, individual animal
endpoint label: concentration at 24 h (ng/mL)
Answer format: numeric, ng/mL implied, no suffix.

So what's the measured concentration at 24 h for this one? "O=C(O)c1cc(-c2ccc(C3CCNCC3)cc2)c2ccc(-c3ccc(C(F)(F)F)cc3)cc2c1"
8270

* * *

test: Plasma concentrations and TK parameters, 72-hour continuous intravenous infusion; assay type: in vivo, Sprague-Dawley rats; conditions: female, Sprague-Dawley, rat, plasma, iv, 30 mg/kg/day, female Sprague-Dawley rats; 72-hour intravenous infusion at 30 mg/kg/day; time 72 h; read-out: Plasma concentration, Mean
endpoint label: concentration at 72 h

So what's the measured concentration at 72 h for this one? "O=C(O)c1cc(-c2ccc(C3CCNCC3)cc2)c2ccc(-c3ccc(C(F)(F)F)cc3)cc2c1"
1.97 µg/mL

* * *

Test: Plasma concentrations and TK parameters, 72-hour continuous intravenous infusion
Assay type: in vivo, Sprague-Dawley rats
Conditions: female, Sprague-Dawley, rat, plasma, iv, 10 mg/kg/day, female Sprague-Dawley rats; 72-hour intravenous infusion at 10 mg/kg/day; time 78 h; read-out: Plasma concentration, individual animal
Description: The safety and pharmacokinetics of PPTN (KB-1801) in rats receiving continuous intravenous injections of SBECD-containing solutions were analyzed. Three cohorts of six male and six female rats each were given continuous intravenous infusion of PPTN (KB-1801) at 10 mg/kg/day, 30 mg/kg/day or 100 mg/kg/day in a dosing solution containing PPTN at 0.25 mg/mL, 0.75 mg/mL or 2.5 mg/mL and SBECD at about 3.8%. Dosing volume was 40 mIkg/day. [table]
endpoint label: concentration at 78 h (ng/mL)
Answer format: numeric, ng/mL implied, no suffix.

So what's the measured concentration at 78 h for this one? "O=C(O)c1cc(-c2ccc(C3CCNCC3)cc2)c2ccc(-c3ccc(C(F)(F)F)cc3)cc2c1"
150

* * *

assay: Plasma concentrations and TK parameters, 72-hour continuous intravenous infusion; format: in vivo, Sprague-Dawley rats; details: female, Sprague-Dawley, rat, plasma, iv, 10 mg/kg/day, female Sprague-Dawley rats; 72-hour intravenous infusion at 10 mg/kg/day; time 72 h; read-out: Plasma concentration, Mean
endpoint label: concentration at 72 h (ng/mL)
Answer format: numeric, ng/mL implied, no suffix.

So what's the measured concentration at 72 h for this one? "O=C(O)c1cc(-c2ccc(C3CCNCC3)cc2)c2ccc(-c3ccc(C(F)(F)F)cc3)cc2c1"
624
